Target: human RORgT (Homo sapiens)
Sequence (P51449 267-516): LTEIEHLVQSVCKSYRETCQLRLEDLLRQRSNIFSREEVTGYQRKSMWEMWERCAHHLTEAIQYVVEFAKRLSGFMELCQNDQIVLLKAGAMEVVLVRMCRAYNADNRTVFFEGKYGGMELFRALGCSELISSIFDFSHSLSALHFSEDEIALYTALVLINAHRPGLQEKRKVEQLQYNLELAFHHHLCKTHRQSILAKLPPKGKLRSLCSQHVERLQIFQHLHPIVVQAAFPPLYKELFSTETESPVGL
Experiment: RORgT Gal4 Luciferase Reporter Gene Assay
Conditions: engineered Jurkat cells overexpressing RORgT (LBD or full length) fused with Gal4 Luc reporter; 18 hours at 37° C.; luminescence
Classes based on EC50: low class (below 10 nM), middle class (10 nM to below 100 nM), high class (100 nM or more)

Form: Item = CC(C)(O)C(=O)N1CC[C@@]2(S(=O)(=O)c3ccccc3)c3ccc(OCc4c(Cl)cccc4Cl)cc3CC[C@@H]12 ; Class = ? high class

Form: Item = O=C(C1CCS(=O)(=O)C1)N1CC[C@@]2(S(=O)(=O)c3ccc(F)cc3)c3ccc(OCc4c(F)cc(F)cc4Cl)cc3CC[C@@H]12 (stereo partly drawn) ; Class = ? middle class

Form: Item = NS(=O)(=O)CC(=O)N1CC[C@@]2(S(=O)(=O)c3ccc(F)cc3)c3ccc(OCc4c(F)cccc4Cl)cc3CC[C@@H]12 ; Class = ? middle class

Form: Item = O=C(O)[C@H]1CC[C@H](C(=O)N2CC[C@@]3(S(=O)(=O)c4ccccc4)c4ccc(OCc5c(F)cccc5Cl)cc4CC[C@@H]23)CC1 ; Class = ? middle class

Form: Item = O=C(C1CCS(=O)(=O)C1)N1CC[C@@]2(S(=O)(=O)c3ccc(F)cc3)c3ccc(OCc4ccc(F)cc4Cl)cc3CC[C@@H]12 (stereo partly drawn) ; Class = ? middle class

Form: Item = O=C(O)[C@H]1CC[C@H](C(=O)N2CC[C@@]3(S(=O)(=O)c4ccccc4)c4ccc(OCc5ccccc5)cc4CC[C@@H]23)CC1 ; Class = ? high class

Form: Item = CC(=O)N1CCC(C(=O)N2CC[C@@]3(S(=O)(=O)c4ccc(F)cc4)c4ccc(OCc5c(F)cccc5Cl)cc4CC[C@@H]23)CC1 ; Class = ? middle class

Form: Item = Cc1ccccc1Cc1ccc2c(c1)CC[C@H]1N(C(=O)C3(C)CCS(=O)(=O)CC3)CC[C@@]21S(=O)(=O)c1ccc(F)cc1 ; Class = ? low class

Form: Item = O=C(C1CCS(=O)(=O)C1)N1CC[C@@]2(S(=O)(=O)c3ccc(F)cc3)c3ccc(OCc4cc(Cl)ccc4Cl)cc3CC[C@@H]12 (stereo partly drawn) ; Class = ? low class

Form: Item = NS(=O)(=O)CC(=O)N1CC[C@@]2(S(=O)(=O)c3ccc(F)cc3)c3ccc(OCc4cc(Cl)ccc4Cl)cc3CC[C@@H]12 ; Class = ? high class

Form: Item = CC(=O)N1CCC(C)(CN2CC[C@@]3(S(=O)(=O)c4ccc(F)cc4)c4ccc(OCc5c(F)cccc5C(F)(F)F)cc4CC[C@@H]23)CC1 ; Class = ? middle class

Form: Item = CN1CCC(C(=O)N2CC[C@@]3(S(=O)(=O)c4ccc(F)cc4)c4ccc(OCc5c(Cl)cccc5Cl)cc4CC[C@@H]23)CC1 ; Class = ? high class
